- testedOn: bradykinin B2 receptor (Cavia porcellus, UniProt O70526)
- Construct: Ileum segments are isolated from male guinea-pigs; tissue Iffa Credo, l'Arbresle, France (supplier of the animals); host or cells: ileum membranes of male Dunkin-Hartley guinea-pigs
- Sequence (O70526 whole entry): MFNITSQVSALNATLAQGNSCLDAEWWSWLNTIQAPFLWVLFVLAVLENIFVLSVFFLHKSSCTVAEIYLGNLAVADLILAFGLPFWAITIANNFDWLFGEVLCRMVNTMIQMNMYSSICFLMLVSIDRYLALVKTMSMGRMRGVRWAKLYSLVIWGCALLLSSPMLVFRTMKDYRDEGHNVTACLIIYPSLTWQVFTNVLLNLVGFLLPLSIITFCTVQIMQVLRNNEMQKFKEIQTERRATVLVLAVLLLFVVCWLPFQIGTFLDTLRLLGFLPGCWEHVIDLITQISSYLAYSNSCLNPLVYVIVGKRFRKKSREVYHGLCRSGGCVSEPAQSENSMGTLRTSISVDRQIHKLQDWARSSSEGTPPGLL
- testMethodNotes: [3H]-bradykinin binding to guinea-pig ileum membranes
- recordedConditions: test compound 10^-6 M, [3H]-bradykinin 120 pM, 90 min at 20° C., read-out: Activity (%): percentage inhibition of the binding of [3H]-bradykinin
propertyName: inhibition at 1 µM (%)
Your answer is read as %, so omit the unit and give the number.

Please review the entries below; each comes with its answer.
1. Cc1ccc2cccc(OCc3c(Cl)ccc(S(=O)(=O)N4CCCC4C(=O)NCCCO)c3Cl)c2n1 (stereo not shown) [Example 6]; 90.9
2. Cc1ccc2cccc(OCc3c(Cl)ccc(S(=O)(=O)N4CCCC4C(=O)NCCCN)c3Cl)c2n1 (stereo not shown) [Example 9]; 97.6
3. Cc1ccc2cccc(OCc3c(Cl)ccc(S(=O)(=O)N4CCCC4C(=O)NCCN(C)C)c3Cl)c2n1 (stereo not shown) [Example 8]; 95.5

Query: Dear colleague, please send me the reported inhibition at 1 µM for Cc1ccc2cccc(OCc3c(Cl)ccc(S(=O)(=O)N4CCCC4C(=O)NCc4ccccc4)c3Cl)c2n1 (stereo not shown) [Example 10] when you can.
Result: 96.4

###

- testedOn: bradykinin B2 receptor (Cavia porcellus)
- Construct: Ileum segments are isolated from male guinea-pigs; tissue Iffa Credo, l'Arbresle, France (supplier of the animals); host or cells: ileum membranes of male Dunkin-Hartley guinea-pigs
- testMethodNotes: [3H]-bradykinin binding to guinea-pig ileum membranes
- recordedConditions: test compound 10^-6 M, [3H]-bradykinin 120 pM, 90 min at 20° C., read-out: Activity (%): percentage inhibition of the binding of [3H]-bradykinin
propertyName: inhibition at 1 µM (%)
Output spec: scalar in %, unitless text.

Example entries and their recorded answers appear below.
1) Cc1ccc2cccc(OCc3c(Cl)ccc(S(=O)(=O)N4CCC(O)C4)c3Cl)c2n1 (stereo not drawn); 94
2) Cc1ccc2cccc(OCc3c(Cl)ccc(S(=O)(=O)N4CCCC4C(=O)OCCCN(C)C)c3Cl)c2n1 (racemic); 76.9
3) Cc1ccc2cccc(OCc3c(Cl)ccc(S(=O)(=O)N4CCCC4)c3Cl)c2n1; 90.1

Query: Name the recorded inhibition at 1 µM of the compound listed here: CCNC(=O)[C@@H]1CCCN1S(=O)(=O)c1ccc(Cl)c(COc2cccc3ccc(C)nc23)c1Cl
Result: 98.5

Query: Using known records, supply inhibition at 1 µM for Cc1ccc2cccc(OCc3c(Cl)ccc(S(=O)(=O)N4CCSC4)c3Cl)c2n1
Result: 94.9

Query: Return inhibition at 1 µM for the following compound: Cc1ccc2cccc(OCc3c(Cl)ccc(S(=O)(=O)N4CCCC4C(=O)NCCCCCO)c3Cl)c2n1 (stereo not drawn)
Result: 97.8

Query: Entry COC(=O)C1CCCN1S(=O)(=O)c1ccc(Cl)c(COc2cccc3ccc(C)nc23)c1Cl (racemic) needs its inhibition at 1 µM filled in; supply it.
Result: 97.8

Query: Specify measured inhibition at 1 µM for COC(=O)[C@@H]1CCCN1S(=O)(=O)c1ccc(Cl)c(COc2cccc3ccc(C)nc23)c1Cl .
Result: 98.6

Query: Specify reported inhibition at 1 µM for the compound shown: COCCNC(=O)C1CCCN1S(=O)(=O)c1ccc(Cl)c(COc2cccc3ccc(C)nc23)c1Cl (stereo not drawn)
Result: 92.6

Query: # return recorded inhibition at 1 µM for entry Cc1ccc2cccc(OCc3c(Cl)ccc(S(=O)(=O)n4cccc4)c3Cl)c2n1
Result: 93.8

Query: Please look at this compound and report its inhibition at 1 µM: CC(=O)NC1CCN(S(=O)(=O)c2ccc(Cl)c(COc3cccc4ccc(C)nc34)c2Cl)C1 (stereo not drawn)
Result: 98.6

Query: Report inhibition at 1 µM, nothing else, for this compound: Cc1ccc2cccc(OCc3c(Cl)ccc(S(=O)(=O)N4CCCC4C(=O)NCCO)c3Cl)c2n1 (stereo not drawn)
Result: 90.1
